The reported numbers originate from patent US10196403B2.

System: mice
Test: Neuropharmacological Assay (SmartCube)
Assay type: in vivo
Conditions: mice, i.p. 15 min before test, most efficacious dose(s) of 3 doses
quantity: PS: anti-psychotic (SmartCube probability)

compound	measurement
CNC[C@H]1OCCc2c(F)cccc21	+ (LOQ≤ + <5%)
CNC[C@@H]1OCCc2ccc(Cl)cc21	++ (5%≤ ++ <25%)
NC[C@H]1OCCc2c1ccc1c2OCO1	+ (LOQ≤ + <5%)
CNC[C@H]1OCCc2ccc3c(c21)OCCO3	++ (5%≤ ++ <25%)
CNC[C@H]1OCCc2ccc3c(c21)CCO3	++ (5%≤ ++ <25%)
Fc1cccc2c1[C@@H](CNC1CCC1)OCC2	+ (LOQ≤ + <5%)
CN(C)C[C@@H]1OCCc2cccc(F)c21	++ (5%≤ ++ <25%)
CNC[C@@H]1OCCc2ccc3c(c21)OCCO3	++ (5%≤ ++ <25%)

PS: anti-psychotic (SmartCube probability) recorded for this compound, CNC[C@H]1OCCc2cc(F)ccc21 , is +++ (25%≤ +++ <50%)

Per the records, this compound ( CNC[C@H]1OC[C@@H](C)c2ccccc21 ) has PS: anti-psychotic (SmartCube probability) equal to ++ (5%≤ ++ <25%)

Form field PS: anti-psychotic (SmartCube probability), entry NC[C@H]1OCCc2c(Cl)cccc21 [Example 66, (S)-(5-chloroisochroman-1-yl)methanamine] : + (LOQ≤ + <5%)

# compound Cc1cccc2c1[C@H](CN)OCC2 [Example 75, (R)-(8-methylisochroman-1-yl)methanamine] ; its PS: anti-psychotic (SmartCube probability) = ++ (5%≤ ++ <25%)

CNC[C@@H]1OC[C@H](O)c2ccc3c(c21)OCO3 (single isomer, unassigned) yielded PS: anti-psychotic (SmartCube probability) of ++ (5%≤ ++ <25%)

Value of PS: anti-psychotic (SmartCube probability) reported for the compound CNC[C@@H]1OC[C@H](O)c2cccc(F)c21 is ++ (5%≤ ++ <25%)

Per the record, CNC[C@@H]1OCCCc2cccc(F)c21 has PS: anti-psychotic (SmartCube probability) of ++++ (50%≤ ++++)

Reported PS: anti-psychotic (SmartCube probability) ( CNC[C@H]1OCCc2c(O)cc3c(c21)OCO3 (single isomer, unassigned) ) = + (LOQ≤ + <5%)

PS: anti-psychotic (SmartCube probability) in this record for CNC[C@H]1OCCc2cccc(C#N)c21 : ++ (5%≤ ++ <25%)

What the record says about CNC[C@H]1OCCc2c(F)ccc(F)c21 : PS: anti-psychotic (SmartCube probability) is ++ (5%≤ ++ <25%)

// PS: anti-psychotic (SmartCube probability) value for CNC[C@@H]1OCCc2c(Cl)cccc21 : + (LOQ≤ + <5%)

Given item CNC[C@H]1OCCc2ccc(F)cc21 , the value recorded as its PS: anti-psychotic (SmartCube probability) is + (LOQ≤ + <5%)

// CNC[C@H]1OCC(F)(F)c2ccccc21 : PS: anti-psychotic (SmartCube probability) value = + (LOQ≤ + <5%)

Lab note: Cc1cccc2c1CCO[C@@H]2CN [Example 72, (S)-(5-methylisochroman-1-yl)methanamine] gave PS: anti-psychotic (SmartCube probability) of + (LOQ≤ + <5%)

Item: NC[C@@H]1OCCc2cc(F)ccc21 [Example 34, (R)-(6-fluoroisochroman-1-yl)methanamine] | PS: anti-psychotic (SmartCube probability): +++ (25%≤ +++ <50%)
